Provide the reported pIC50 of each item.
// returns pIC50 (minus log10 of molar concentration), number only

Value wanted: pIC50 (hDGKalpha(1-735)-N-His (DGKA) (Homo sapiens)) of entry CC(F)(F)c1ccc(-c2ccc(CN3C(=O)[C@H](N)CC(F)(F)c4cc(F)c(-c5nnc(C(C)(C)C#N)o5)cc43)cc2)nc1 (single isomer, unassigned) [Example 37]
4.95

Look up pIC50 with hDGKalpha(1-735)-N-His (DGKA) (Homo sapiens) for this molecule: CC(C)(C#N)c1nnc(-c2cc3c(cc2F)C(F)(F)C[C@@H](N)C(=O)N3Cc2ccc(-c3ccc(C(F)(F)F)cn3)cc2)o1 (single isomer, unassigned) [Example 12]
4.61

So what pIC50 did CC(C)(C#N)c1nnc(-c2cc3c(cc2F)C(F)(F)CC(N)C(=O)N3Cc2ccc(-n3cc(C(F)(F)F)cn3)cc2)o1 (racemic) [Example 33] get with hDGKalpha(1-735)-N-His (DGKA) (Homo sapiens)?
5.63

Request - read-out pIC50 | tested on hDGKalpha(1-735)-N-His (DGKA) (Homo sapiens) | molecule CC(C)(C#N)c1nnc(-c2cc3c(cc2F)C(F)(F)C[C@@H](N)C(=O)N3Cc2ccc(-c3ccc(C(F)F)cn3)cc2)o1 (single isomer, unassigned) [Example 40]
4.81

What value of pIC50 on hDGKalpha(1-735)-N-His (DGKA) (Homo sapiens) does CC(C)(C#N)c1nnc(-c2cc3c(cc2F)C(F)(F)C[C@@H](N)C(=O)N3Cc2ccc(Oc3ccccc3)cc2)o1 (single isomer, unassigned) [Example 11] have?
5.48

Param readout= pIC50; system= hDGKalpha(1-735)-N-His (DGKA) (Homo sapiens); entry= CC(C)(c1nnc(-c2cc3c(cc2F)C(F)(F)C[C@@H](N)C(=O)N3Cc2ccc(-c3ccc(C(F)(F)F)cn3)cc2)o1)S(C)(=O)=O (single isomer, unassigned) [Example 8] ; returns value.
5.26

Hello, I am looking for reported pIC50 with hDGKalpha(1-735)-N-His (DGKA) (Homo sapiens) for COC(=O)N1CC2CC(c3nnc(-c4cc5c(cc4F)C(F)(F)CC(N)C(=O)N5Cc4ccc(-c5noc(C(F)(F)F)n5)cc4)o3)(C2)C1 (single isomer, unassigned) [Example 42] . Could you help?
5.37

Record lookup: for hDGKalpha(1-735)-N-His (DGKA) (Homo sapiens), what pIC50 belongs to CC(C)(C#N)c1nnc(-c2cc3c(cc2F)C(F)(F)C[C@@H](N)C(=O)N3Cc2ccc(-c3cnn(C(F)(F)F)c3)cc2)o1 (single isomer, unassigned) [Example 48] ?
5.82

Recall the recorded pIC50 for CC(C)(C#N)c1nnc(-c2cc3c(cc2F)C(F)(F)C[C@@H](N)C(=O)N3Cc2ccc(-n3nnc(C(F)(F)F)n3)cc2)o1 (single isomer, unassigned) [Example 20] with hDGKalpha(1-735)-N-His (DGKA) (Homo sapiens) and state it.
5.14

----------
system: MV-3 RFP cells; assay: T-cell TCB MV3 killing assay; format: cell-based, human; conditions: Homo sapiens, MV-3, 120 h; isomer A; 20 μM reference compound A1 = 100%, MCSP-TCB only neutral control; read-out: MSCP TCB killing MV-3 cells 5 d Emax (%)
So I've got a bunch of compounds here, and I need their Emax values.

Notebook entry, MV-3 RFP cells assay: Emax of COc1ccc(-c2ccc(CN3C(=O)[C@H](N)CC(F)(F)c4cc(F)c(-c5nnc(C(C)(C)C#N)o5)cc43)cc2)cc1 (single isomer, unassigned) [Example 9] = ?
92%

Give the reported Emax for N[C@@H]1CC(F)(F)c2cc(F)c(-c3nnc(N4CCOC5(CC5)C4)o3)cc2N(Cc2ccc(-c3noc(C(F)(F)F)n3)cc2)C1=O (single isomer, unassigned) [Example 17] (system: MV-3 RFP cells).
105%

Form field: Emax recorded for CC(C)(C#N)c1nnc(-c2cc3c(cc2F)C(F)(F)C[C@@H](N)C(=O)N3Cc2ccc(-c3ccc(C(F)(F)F)cn3)cc2)o1 (single isomer, unassigned) [Example 12] with MV-3 RFP cells (enter value)
103%

----------
Assignment: determine reported IC50 for the given molecules.

Form field - read-out: IC50; system: hDGKzeta(1-928)-N-His (DGKZ) (Homo sapiens); submitted item: CC(C)(C#N)c1nnc(-c2cc3c(cc2F)C(F)(F)C[C@@H](N)C(=O)N3Cc2ccc(-c3ccc(OC(F)(F)F)cn3)cc2)o1 (single isomer, unassigned)
Sequence (Q13574 whole entry): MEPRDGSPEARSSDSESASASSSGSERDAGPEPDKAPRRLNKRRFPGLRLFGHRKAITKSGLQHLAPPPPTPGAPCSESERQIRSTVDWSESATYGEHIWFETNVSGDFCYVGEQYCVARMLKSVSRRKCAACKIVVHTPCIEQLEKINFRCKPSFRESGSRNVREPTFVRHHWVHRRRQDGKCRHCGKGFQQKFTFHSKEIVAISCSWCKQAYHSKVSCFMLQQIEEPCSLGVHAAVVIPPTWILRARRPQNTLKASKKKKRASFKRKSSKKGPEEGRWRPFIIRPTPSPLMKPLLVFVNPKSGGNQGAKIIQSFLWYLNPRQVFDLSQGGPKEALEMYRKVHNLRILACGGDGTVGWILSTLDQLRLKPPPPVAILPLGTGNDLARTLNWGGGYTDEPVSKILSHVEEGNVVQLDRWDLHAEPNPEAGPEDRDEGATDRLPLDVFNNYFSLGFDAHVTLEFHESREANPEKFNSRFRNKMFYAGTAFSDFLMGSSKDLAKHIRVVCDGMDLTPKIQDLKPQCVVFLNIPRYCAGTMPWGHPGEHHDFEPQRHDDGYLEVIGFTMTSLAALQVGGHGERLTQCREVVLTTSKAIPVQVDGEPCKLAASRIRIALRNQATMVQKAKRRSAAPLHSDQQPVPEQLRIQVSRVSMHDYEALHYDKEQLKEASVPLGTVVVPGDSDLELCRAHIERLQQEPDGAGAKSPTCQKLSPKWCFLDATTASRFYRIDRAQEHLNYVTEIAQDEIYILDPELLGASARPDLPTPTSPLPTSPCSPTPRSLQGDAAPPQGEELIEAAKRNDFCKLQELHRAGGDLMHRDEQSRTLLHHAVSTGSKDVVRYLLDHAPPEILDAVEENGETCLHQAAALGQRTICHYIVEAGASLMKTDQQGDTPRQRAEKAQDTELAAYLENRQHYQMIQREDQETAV
2.4 µM

// map N[C@@H]1CC(F)(F)c2cc(F)c(-c3nnc(N4CCCC4)o3)cc2N(Cc2ccc(-c3noc(C(F)(F)F)n3)cc2)C1=O (single isomer, unassigned) to recorded IC50 (system: hDGKzeta(1-928)-N-His (DGKZ) (Homo sapiens))
17.9 µM

Hi! What's the reported IC50 for COCCN1CC(c2nnc(-c3cc4c(cc3F)C(F)(F)C[C@@H](N)C(=O)N4Cc3ccc(-c4ccc(C(F)(F)F)cn4)cc3)o2)CC(F)(F)C1 (single isomer, unassigned) on hDGKzeta(1-928)-N-His (DGKZ) (Homo sapiens)?
11.1 µM

----------
READOUT_LABEL: pIC50
Just the number, please; pIC50 means minus log10 of the concentration in mol/L.

Lab request: please report pIC50 under test system hDGKalpha(1-735)-N-His (DGKA) (Homo sapiens, UniProt P23743) for COc1ccc(-c2ccc(CN3C(=O)[C@H](N)CC(F)(F)c4cc(F)c(-c5nnc(C(C)(C)S(C)(=O)=O)o5)cc43)cc2)cc1 (single isomer, unassigned)
4.79

Lab request: please report pIC50 under test system hDGKalpha(1-735)-N-His (DGKA) (Homo sapiens, UniProt P23743) for COC(=O)N1CC2CC(c3nnc(-c4cc5c(cc4F)C(F)(F)C[C@@H](N)C(=O)N5Cc4ccc(Cl)cc4)o3)(C2)C1 (single isomer, unassigned)
4.26

----------
target: DGK α kinase (Homo sapiens, UniProt P23743)
Sequence (P23743 whole entry): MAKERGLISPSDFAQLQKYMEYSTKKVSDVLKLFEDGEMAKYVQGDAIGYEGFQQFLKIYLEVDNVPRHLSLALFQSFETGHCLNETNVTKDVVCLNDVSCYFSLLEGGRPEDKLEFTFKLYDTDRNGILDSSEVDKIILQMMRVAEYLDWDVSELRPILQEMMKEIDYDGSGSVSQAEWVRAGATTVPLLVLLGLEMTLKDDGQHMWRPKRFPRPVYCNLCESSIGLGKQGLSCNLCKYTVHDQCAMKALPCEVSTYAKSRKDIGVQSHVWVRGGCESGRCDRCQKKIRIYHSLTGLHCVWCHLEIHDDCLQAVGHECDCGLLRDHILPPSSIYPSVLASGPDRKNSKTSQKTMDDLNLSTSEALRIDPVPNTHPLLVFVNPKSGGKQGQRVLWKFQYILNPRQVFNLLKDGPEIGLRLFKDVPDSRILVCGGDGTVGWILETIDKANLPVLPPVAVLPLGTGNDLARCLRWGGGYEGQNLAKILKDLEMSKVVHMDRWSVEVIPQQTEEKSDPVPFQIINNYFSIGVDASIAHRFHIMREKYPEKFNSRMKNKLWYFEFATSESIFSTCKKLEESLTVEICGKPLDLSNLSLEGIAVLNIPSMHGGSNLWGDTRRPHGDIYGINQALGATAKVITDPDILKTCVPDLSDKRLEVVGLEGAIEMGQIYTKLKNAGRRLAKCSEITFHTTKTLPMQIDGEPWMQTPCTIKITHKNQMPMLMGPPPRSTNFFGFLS
Give IC50 for every item shown.
Report as a plain number; the unit nM is understood.

Can you look up the measured IC50 of CC(C)(C#N)c1nnc(-c2cc3c(cc2F)C(F)(F)C[C@@H](N)C(=O)N3Cc2ccc(-c3ccc(C(F)(F)F)cn3)cc2)o1 (single isomer, unassigned) for me?
108

Which IC50 value is on record for CC(C)(C)c1nnc(-c2cc3c(cc2F)C(F)(F)C[C@@H](N)C(=O)N3Cc2ccc(OC3CCCC3)cc2)o1 (single isomer, unassigned) ?
70.3

What measured IC50 goes with CC(C)(c1nnc(-c2cc3c(cc2F)C(F)(F)CC(N)C(=O)N3Cc2ccc(Oc3ccccc3)cc2)o1)S(C)(=O)=O (racemic) ?
124

Field request: IC50 | item: CC(C)(C#N)c1nnc(-c2cc3c(cc2F)C(F)(F)C[C@@H](N)C(=O)N3Cc2ccc(Oc3ccccc3)cc2)o1 (single isomer, unassigned)
6.9

----------
For each record, write down the corresponding Emax.
tested on: primary human T-cells; assay: T-cell proliferation assay (CellTiter-Glo); format: cell-based; settings: Homo sapiens, T-cell, 120 h; isomer A; CD3 condition, 5 days; 20 μM reference compound A1 = 100%, DMSO neutral control; read-out: Emax proliferation (% activation)
Return type: number; implicit unit %.

Record request: Emax value, item CC(C)(C#N)c1nnc(-c2cc3c(cc2F)C(F)(F)C[C@@H](N)C(=O)N3Cc2ccc(Oc3ccccc3)cc2)o1 (single isomer, unassigned) [Example 11]
88

Item CC(C)(c1nnc(-c2cc3c(cc2F)C(F)(F)C[C@@H](N)C(=O)N3Cc2ccc(-c3ccc(OC(F)(F)F)cn3)cc2)o1)S(C)(=O)=O (single isomer, unassigned) [Example 26] has what recorded Emax?
155

// lookup Emax for COc1ccc(-c2ccc(CN3C(=O)[C@H](N)CC(F)(F)c4cc(F)c(-c5nnc(C(C)(C)C#N)o5)cc43)cc2)nc1 (single isomer, unassigned) [Example 38]
105

----------
Tested on: primary human T-cells
Assay: T-cell proliferation assay (CellTiter-Glo)
Assay type: cell-based
Conditions: Homo sapiens, T-cell, 120 h; isomer A; CD3 condition, 5 days; 20 μM reference compound A1 = 100%, DMSO neutral control; read-out: Emax proliferation (% activation)
Method: Expanded primary human T-cells are thawed and cultured in RPMI 1640 (Gibco, #61870-010)+5% human serum (HS, Sigma, #H3667)+1 mM Sodium Pyruvate (Gibco, #11360-039)+50 μM 2-mercaptoethanol (Gibco, #31350-010) and 1× Pen-Strep (Life Technologies, #15140122) medium at density of 2 Mio/ml for 3 hours in 5% CO2, 37° C. and 95% humidity. […]
The threshold is inclusive: Emax of exactly 80% counts as Met; values below receive Not met.

Does the molecule N[C@@H]1CC(F)(F)c2cc(F)c(-c3nnc(N4CCC(F)(F)C4)o3)cc2N(Cc2ccc(-n3cnc(C(F)(F)F)n3)cc2)C1=O (single isomer, unassigned) [Example 22] have recorded Emax that is 80% or more?
Not met

Hello, I need to know if CC(F)(F)c1ccc(-c2ccc(CN3C(=O)[C@H](N)CC(F)(F)c4cc(F)c(-c5nnc(C(C)(C)C#N)o5)cc43)cc2)nc1 (single isomer, unassigned) [Example 37] has measured Emax not below 80%. Thanks!
Met

Tell me whether Emax is at least 80% here: CC(C)(C#N)c1nnc(-c2cc3c(cc2F)C(F)(F)C[C@@H](N)C(=O)N3Cc2ccc(-n3cc(C(F)(F)F)cn3)c(F)c2)o1 (single isomer, unassigned) [Example 47]
Met

These data points were gathered from patent US20250236614A1.
